Molecular target: Epidermal growth factor receptor (Homo sapiens)
Assay: compounds binding epidermal growth factor receptor – biochemical, small-molecule microarray, 635 nm fluorescence, primary screen (AID 1104);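 further: score merges 667 nm emission intensity with spot signal to noise over triplicate slides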
Details: EGFR binding, higher = more signal
measured-property: composite z-score

Known composite z-score results, listed for orientation:
compound: COc1ccc(C(O)C2C=CC3C(=O)N(C)C(=O)C3N2N(c2ccccc2)c2ccccc2)cc1 (stereo not drawn)
experimental-system: Epidermal growth factor receptor (Homo sapiens)
composite z-score: -0.0923
--
compound: CC1=C([C@H](O)CCc2ccccc2)[C@H](CO)n2c(=O)n(-c3ccccc3)c(=O)n2C1
experimental-system: Epidermal growth factor receptor (Homo sapiens)
composite z-score: 0.167
--
compound: C=C(CCCC)/C(=C/C[C@@H](OC(C)=O)c1ccc(CO)o1)c1cnc2ccccc2c1
experimental-system: Epidermal growth factor receptor (Homo sapiens)
composite z-score: 0.533

# get_value(readout='composite z-score', item= COC(=O)c1cccc([C@H]2OC(=CC(=O)OC(C)C)C[C@@H](c3cccc(C(=O)OC)c3)O2)c1 )
0.693

# get_value(readout='composite z-score', item= C=C(COC)/C(=C/C[C@@H](OC(C)=O)c1ccccc1OCCO)c1cnc2ccccc2c1 )
0.26

###

Assay: compound effects on hepatocellular carcinoma cell viability – HepG2, calcein-AM fluorescence, 48 h, basal, profiling panel (AID 1164); further: test concentration not given here
Conditions: higher = more signal
measured-property: z-score
Output spec: single numeric token, no unit.

Known z-score results, listed for orientation:
compound: O=C1C[C@@](C(=O)NCc2ccccc2)(c2ccc([N+](=O)[O-])cc2)[C@@H](c2ccc(CO)cc2)N1C1CCCCC1
z-score: 2.22
--
compound: O=C1C[C@]2(c3ccc([N+](=O)[O-])cc3)C(=O)N(C3CC3)c3cc(CO)ccc3[C@H]2N1C1CCCCC1
z-score: 0.214
--
compound: COc1cc(CO)cc(I)c1O[C@H]1C=C(C(=O)NCCO)C[C@@H](NC2CCCCCC2)[C@@H]1O
z-score: 0.806

Shifting focus to the compound that follows.
# get_value(readout='z-score', item= CC(C)C[C@@H]1NC(=O)[C@@]23C(=O)N[C@@H](Cc4ccccc4)C2[C@H](C)[C@@]2(C)O[C@H]2C3/C=C/C/C=C\CNC(=O)CNC1=O (some centres undefined) )
-0.47

###

Assay: growth effects on S. cerevisiae YJM789 – YJM789 clinical isolate, OD600, 24 h, basal, primary screen (AID 1089);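 further: growth of clinical yeast isolate S. cerevisiae YJM 789 seeded 1000 cells per well; test concentration not given here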
Conditions: higher = more signal, called active from +8 up or from −8 down
# z-score per entry
Output spec: single numeric token, no unit.

Known z-score results, listed for orientation:
molecule: COC(=O)[C@@]1(Cc2ccc(OC)cc2)[C@H]2c3cc(C(=O)N4CCCC4)n(Cc4c(CO)[nH]cc(C)c4=O)c3C[C@H]2CN1C(=O)c1ccccc1
z-score: -1.56
--
molecule: CC1CC/C=C\[C@H]2OC34C=CCN(c5ccc6ccccc6c5)C(=O)[C@H]3N(C(C)CO)C(=O)[C@@H]4C2C(=O)O1 (some centres not stated)
z-score: 0.612
--
molecule: O=C(NC1CC1)[C@@H]1c2ccccc2C(=O)N(Cc2cc(C(F)(F)F)cc(C(F)(F)F)c2)[C@H]1c1ccc(CO)cc1
z-score: -0.523

# get_value(readout='z-score', item= CCOC(=O)C[C@H]1[C@H](OC(=O)Cc2ccc3c(c2)OCO3)[C@@H](NC(=O)Cc2ccc(OC)cc2)c2cc(OCCCO)ccc2N1C(=O)Cc1ccc(OC)cc1 )
-0.449

# get_value(readout='z-score', item= COC(=O)[C@@]1(Cc2ccc(OC)cc2)[C@H]2c3cc(C(=O)N(C)C)[nH]c3C[C@H]2CN1C(=O)c1ccccc1 )
0.0372

# get_value(readout='z-score', item= CCN(CC)c1ccc(N2CC=CC34O[C@@H]5C=CCCOC(=O)C5[C@H]3C(=O)N(C(C)CO)[C@@H]4C2=O)cc1 (some centres not stated) )
-1.01

###

Assay: optical density shifts of acrAB sulA E. coli – strain DRC41, OD650, 48 h, E. coli filamentation inducer project, primary screen (AID 1152);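 further: E. coli MC1000 strain DRC41 lacking acrAB efflux pump and sulA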
Conditions: higher = more signal, called active from +8 up or from −8 down
measured-property: z-score
Output spec: single numeric token, no unit.

Known z-score results, listed for orientation:
compound: NC(=O)NCC#Cc1ccc2c(c1)[C@]1(C(=O)N2)[C@H](c2ccc(OCCO)cc2)N2[C@H](c3ccccc3)[C@H](c3ccccc3)OC(=O)[C@H]2[C@@H]1C(=O)NC[C@H](O)c1ccccc1
z-score: 2.63

compound: C[C@@H]1ON(c2ccccc2)[C@H](c2ccccc2)[C@H]1C(=O)O
z-score: -0.0929

compound: O=C1C2C=CC(C(O)C3CCCCC3)N(n3cnnc3)C2C(=O)N1Cc1ccccc1 (centres undefined)
z-score: 0.253

# get_value(readout='z-score', item= CCCCC(=C=CC[C@H](O)c1ccc(CO)o1)CCO )
-0.258

###

Assay: small molecules captured by biotinylated probe aFSTL3 – biochemical, small-molecule microarray, fluorescence 635/667, stem cell growth factor project, primary screen (AID 1064);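 further: measures binding of the biotinylated anti-FSTL3 antibody to printed compounds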
Details: higher = more signal
Decide using composite z-score: a value greater than or equal to -0.06 is fulfilled, a smaller one is not fulfilled.

Study these solved cases before continuing.
compound: COCCCNC(=O)[C@@]1(CCC(=O)OC(C)(C)C)COC(c2ccc(OCCCO)cc2)=N1
category: not fulfilled
//
compound: C=CCC(OC(C)=O)[C@@H]1[C@@H](N(Cc2cc3ccccc3o2)C(=O)Cc2ccc(OC)cc2)c2cc(OCCCO)ccc2N1C(=O)c1ccc2ccccc2n1 (some centres not stated)
category: fulfilled
//
compound: COc1ccc([Si](C)(C)[C@@H]2[C@@H](CC(=O)N3CCC[C@H]3CO)O[C@]3(C(=O)N(Cc4cccc(N5CCCCC5=O)c4)c4ccccc43)[C@H]2C)cc1
category: not fulfilled

Please check the record COc1cc(C(O)C2C=CC3C(=O)N(c4ccccc4)C(=O)C3N2Nc2ccccc2)cc(OC)c1OC (configuration not stated) and state if its composite z-score is at or above -0.06.
fulfilled

Please check the record COCCCN1C(=O)[C@@]2(c3ccc([N+](=O)[O-])cc3)CC(=O)N(CC34CC5CC(CC(C5)C3)C4)[C@@H]2c2ccc(CO)cc21 and state if its composite z-score is at or above -0.06.
not fulfilled

Please check the record COc1ccccc1CN1C(=O)c2ccccc2[C@](Cc2ccccc2I)(C(=O)NCC(C)C)[C@@H]1c1ccc(CO)cc1 and state if its composite z-score is at or above -0.06.
fulfilled

Please check the record Cc1ccc(S[C@]2(C(=O)NCCCN(C)C)CC(=O)N(C3Cc4ccccc4C3)[C@@H]2c2ccc(CO)cc2I)cc1 and state if its composite z-score is at or above -0.06.
fulfilled

###

Molecular target: Fibroblast growth factor 10 (Homo sapiens)
Assay: compounds binding fibroblast growth factor 10 – biochemical, small-molecule microarray, 635 nm fluorescence, primary screen (AID 1102)
Settings: FGF10 binding, fluorescence 635 nm, higher = more signal
Decide using composite z-score: a value greater than or equal to 1 is Y, a smaller one is N.

Study these solved cases before continuing.
compound: NC(=O)N1C(=O)C2C(C1=O)C1C=C(CCCO)C2C(C2CC2)N1Cc1sc2ccccc2c1Cl (stereo unspecified)
category: Y
--
compound: COCCOC(=O)N1C(=O)[C@@]2(c3cc(C#Cc4ccc(OC)cc4)ccc31)[C@H](c1ccc(OCCO)cc1)N1[C@H](c3ccccc3)[C@H](c3ccccc3)OC(=O)[C@H]1[C@@H]2C(=O)NC[C@H](O)c1ccccc1
category: Y
--
compound: O=C(NC1CC1)[C@@H]1c2ccccc2C(=O)N(Cc2ccc(OC(F)(F)F)cc2)[C@H]1c1ccc(CO)cc1
category: N
--
compound: O=C1O[C@@H](c2ccccc2)[C@@H](c2ccccc2)N2[C@@H](c3ccc(OCCO)cc3)[C@]3(C(=O)Nc4ccc(C#CC5(O)CCCCCC5)cc43)[C@@H](C(=O)Nc3nc4ccccc4s3)[C@H]12
category: Y

Please check the record CCCCCCc1nc(Cc2cc(OC)c(OC)c(OC)c2)cc2c1[Si](C(C)C)(C(C)C)O[C@H]2c1ccccc1 and state if its composite z-score is at or above 1.
N

###

Target: Left-right determination factor 2 (Homo sapiens) (UniProt O00292)
Sequence (O00292 whole entry, looked up): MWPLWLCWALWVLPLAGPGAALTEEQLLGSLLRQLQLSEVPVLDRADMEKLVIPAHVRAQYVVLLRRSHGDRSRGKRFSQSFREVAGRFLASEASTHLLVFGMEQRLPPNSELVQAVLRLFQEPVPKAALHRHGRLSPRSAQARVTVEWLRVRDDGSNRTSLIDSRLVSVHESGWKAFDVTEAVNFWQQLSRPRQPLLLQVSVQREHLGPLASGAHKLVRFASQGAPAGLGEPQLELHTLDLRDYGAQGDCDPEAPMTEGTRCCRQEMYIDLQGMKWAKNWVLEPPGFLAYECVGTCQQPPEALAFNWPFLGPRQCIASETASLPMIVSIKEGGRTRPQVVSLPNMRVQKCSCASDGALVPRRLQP
Assay: small molecules binding LEFTY2 protein – biochemical, small-molecule microarray, 635 nm fluorescence scan, primary screen (AID 1110)
Conditions: higher = more signal
measured-property: composite z-score

Known composite z-score results, listed for orientation:
compound: CC(C)NC(=O)[C@@]1(c2ccc([N+](=O)[O-])cc2)CC(=O)N(CC23CC4CC(CC(C4)C2)C3)[C@@H]1c1ccc(CO)cc1
experimental-system: Left-right determination factor 2 (Homo sapiens) (UniProt O00292)
composite z-score: 1.03
//
compound: C[C@@H]1ON(c2ccc(I)cc2)[C@H](c2cccc(NC(=O)OCC3c4ccccc4-c4ccccc43)c2)[C@H]1C(=O)N1C(=O)OC[C@H]1Cc1ccccc1
experimental-system: Left-right determination factor 2 (Homo sapiens) (UniProt O00292)
composite z-score: 0.678

Kindly state the measured composite z-score obtained for COc1cc(C(O)C2C=CC3C(=O)N(c4ccccc4)C(=O)C3N2Nc2ccccc2)cc(OC)c1OC (centres undefined) with Left-right determination factor 2 (Homo sapiens) (UniProt O00292).
-0.0844

Kindly state the measured composite z-score obtained for CC(C)N1C(=O)c2ccccc2[C@](C)(C(=O)NCC(F)(F)F)[C@@H]1c1ccc(CO)cc1 with Left-right determination factor 2 (Homo sapiens) (UniProt O00292).
-1.41
